Molecular target: T1, human EGFRvIII-hFc protein (human, UniProt P00533 25-645)
T1 construct: extracellular domain; also called immunogen A; hFc-tagged EGFRvIII protein; not shown: human IgG Fc fragment (hFc) of the pCpC vector
Experiment: ELISA, EGFRvIII-hFc coated
Quantity measured: OD450 nm at 10 nM antibody (OD450)
Please respond with the number in OD450 and leave the unit unwritten.

Task: Returns the measured OD450 nm at 10 nM antibody for the input binder. Input: Chimeric antibody 7E5 (antibody, human IgG1, V domains shown, also called clone 7E5-2A9) VH: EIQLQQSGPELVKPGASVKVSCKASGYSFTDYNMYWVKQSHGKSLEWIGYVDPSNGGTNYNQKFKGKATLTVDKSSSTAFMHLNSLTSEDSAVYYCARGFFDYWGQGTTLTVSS VL: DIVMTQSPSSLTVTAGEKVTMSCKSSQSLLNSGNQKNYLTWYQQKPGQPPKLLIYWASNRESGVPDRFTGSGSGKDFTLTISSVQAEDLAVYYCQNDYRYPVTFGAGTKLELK
Result: 3.63

Task: Which value of OD450 nm at 10 nM antibody has been reported for Chimeric antibody 64F1 (antibody, human IgG1, V domains shown, also called clone 64F1F8) VH: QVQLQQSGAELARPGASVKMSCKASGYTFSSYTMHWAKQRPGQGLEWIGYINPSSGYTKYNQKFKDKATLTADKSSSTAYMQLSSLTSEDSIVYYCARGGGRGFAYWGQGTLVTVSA VL: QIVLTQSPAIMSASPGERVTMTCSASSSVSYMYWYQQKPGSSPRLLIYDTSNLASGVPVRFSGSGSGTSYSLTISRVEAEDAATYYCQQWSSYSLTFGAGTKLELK in the records?
Result: 3.78

Task: Item Chimeric antibody 63A10 (antibody, human IgG1, V domains shown, also called c63A10A7; chimeric antibody c63A10A7) VH: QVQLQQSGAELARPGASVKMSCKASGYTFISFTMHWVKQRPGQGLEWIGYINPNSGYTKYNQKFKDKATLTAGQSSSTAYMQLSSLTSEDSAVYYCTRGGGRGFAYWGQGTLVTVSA VL: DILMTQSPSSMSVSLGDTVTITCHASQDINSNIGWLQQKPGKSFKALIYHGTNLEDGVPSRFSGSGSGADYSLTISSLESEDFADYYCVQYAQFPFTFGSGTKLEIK has what recorded OD450 nm at 10 nM antibody?
Result: 3.55

Task: Please give the measured OD450 nm at 10 nM antibody for this binder: Chimeric antibody 75G7 (antibody, human IgG1, V domains shown, also called c75G7C6; chimeric antibody c75G7C6) VH: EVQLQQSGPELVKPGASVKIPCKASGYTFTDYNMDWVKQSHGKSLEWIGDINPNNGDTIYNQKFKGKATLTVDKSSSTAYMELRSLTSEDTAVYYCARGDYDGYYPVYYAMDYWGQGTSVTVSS VL: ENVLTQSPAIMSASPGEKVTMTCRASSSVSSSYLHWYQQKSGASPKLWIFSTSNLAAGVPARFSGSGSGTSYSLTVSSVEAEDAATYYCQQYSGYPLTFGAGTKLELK
Result: 3.41
